Procedure Text: In vitro intrinsic clearance in microsomes (Assay 3), human
Type: in vitro ADME
Test Settings: pH 7.4; heading: Assay 3 - Microsomal Cl; human female microsomes, 0.5 uM compound, 0.5 mg/mL protein
Reported microsomal CLint at 0.5 uM values are given for each entry in this list.

Problem: Entry under review: CC[C@H](C)[C@@H]1C(=O)N[C@H](C2Cc3ccccc3C2)C(=O)N1[C@@H](C(=O)N(C)C)c1ccc2c(cnn2C)c1 [Example 2] . Reported microsomal CLint at 0.5 uM?
Solution: 1 to 8 mL/min/g

Problem: Entry under review: CC(C)C[C@@H]1C(=O)N[C@H](C2Cc3ccccc3C2)C(=O)N1[C@@H](C(=O)N(C)C)c1ccc2[nH]ncc2c1 [Comparator compound X, reference compound] . Reported microsomal CLint at 0.5 uM?
Solution: > 31 mL/min/g

Problem: Entry under review: CC[C@H](C)[C@@H]1C(=O)N[C@H](C2Cc3ccccc3C2)C(=O)N1[C@@H](C(=O)NC)c1ccc2c(cnn2C)c1 [Example 1] . Reported microsomal CLint at 0.5 uM?
Solution: 1 to 8 mL/min/g

Problem: Entry under review: CC(C)C[C@@H]1C(=O)N[C@H](C2Cc3ccccc3C2)C(=O)N1[C@@H](C(=O)N(C)C)c1ccc(F)cc1F [Comparator compound Y, reference compound] . Reported microsomal CLint at 0.5 uM?
Solution: 16 to 20 mL/min/g

* * *

Reported microsomal CLint at 0.5 uM values are given for each entry in this list.
Procedure Text: In vitro intrinsic clearance in microsomes (Assay 3), cynomolgus monkey
Assay type: in vitro ADME
Test Settings: pH 7.4; heading: Assay 3 - Microsomal Cl, Cyno; cynomolgus monkey female microsomes, 0.5 uM compound, 0.5 mg/mL protein

{"Compound": "CC[C@H](C)[C@@H]1C(=O)N[C@H](C2Cc3ccccc3C2)C(=O)N1[C@@H](C(=O)N(C)C)c1ccc2c(cnn2C)c1", "microsomal CLint at 0.5 uM": "9 to 15 mL/min/g"}
{"Compound": "CC(C)C[C@@H]1C(=O)N[C@H](C2Cc3ccccc3C2)C(=O)N1[C@@H](C(=O)N(C)C)c1ccc(F)cc1F [Comparator compound Y, reference compound]", "microsomal CLint at 0.5 uM": "21 to 30 mL/min/g"}
{"Compound": "CC(C)C[C@@H]1C(=O)N[C@H](C2Cc3ccccc3C2)C(=O)N1[C@@H](C(=O)N(C)C)c1ccc2[nH]ncc2c1 [Comparator compound X, reference compound]", "microsomal CLint at 0.5 uM": "> 31 mL/min/g"}

Would you kindly look at the next entry?
Problem: Entry under review: CC[C@H](C)[C@@H]1C(=O)N[C@H](C2Cc3ccccc3C2)C(=O)N1[C@@H](C(=O)NC)c1ccc2c(cnn2C)c1 . Reported microsomal CLint at 0.5 uM?
Solution: 9 to 15 mL/min/g

* * *

Reported pKi values are given for each entry in this list.
Measured Target: recombinant human Oxytocin-1 (hOT) receptor (Homo sapiens, UniProt P30559)
Sequence (P30559 whole entry): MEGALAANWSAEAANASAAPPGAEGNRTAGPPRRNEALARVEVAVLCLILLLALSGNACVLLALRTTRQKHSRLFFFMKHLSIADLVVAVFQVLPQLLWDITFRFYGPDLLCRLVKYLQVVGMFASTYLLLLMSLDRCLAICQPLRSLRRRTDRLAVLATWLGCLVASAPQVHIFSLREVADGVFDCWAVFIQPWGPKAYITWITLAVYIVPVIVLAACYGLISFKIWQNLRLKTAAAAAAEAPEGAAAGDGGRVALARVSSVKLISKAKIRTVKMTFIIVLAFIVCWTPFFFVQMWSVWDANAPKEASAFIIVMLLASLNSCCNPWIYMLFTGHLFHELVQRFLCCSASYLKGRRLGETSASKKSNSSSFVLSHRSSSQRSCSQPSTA
Procedure Text: Determination of antagonist affinity at human Oxytocin-1 receptors using FLIPR (Assay 1)
Test Settings: CHO-hOT cells, FLIPR calcium response, oxytocin at EC80; read-out: fpki (Assay 1)
pKi: −log10 of the molar value.

{"Compound": "CC[C@H](C)[C@@H]1C(=O)N[C@H](C2Cc3ccccc3C2)C(=O)N1[C@@H](C(=O)N(C)C)c1ccc2c(cnn2C)c1", "pKi": "8.50 to 8.70"}
{"Compound": "CC(C)C[C@@H]1C(=O)N[C@H](C2Cc3ccccc3C2)C(=O)N1[C@@H](C(=O)N(C)C)c1ccc(F)cc1F [Comparator compound Y, reference compound]", "pKi": "8.50 to 8.70"}

Problem: Request - read-out pKi | tested on recombinant human Oxytocin-1 (hOT) receptor (Homo sapiens, UniProt P30559) | compound CC[C@H](C)[C@@H]1C(=O)N[C@H](C2Cc3ccccc3C2)C(=O)N1[C@@H](C(=O)NC)c1ccc2c(cnn2C)c1
Solution: 8.50 to 8.70

Hey, just so you know, these numbers are from patent US20070208031A1.
